What fold (off-rate vs DLLBII101G08) was measured for each of the following?
# measured-target: T1, recombinant human DLL4 (C-terminally His-tagged extracellular domain, R&D Systems) (human, UniProt Q9NR61 25-522, biotinylated in the competition ELISA)
# T1 construct: also called rhDLL4; hDLL4
# T1 sequence (Q9NR61 25-522): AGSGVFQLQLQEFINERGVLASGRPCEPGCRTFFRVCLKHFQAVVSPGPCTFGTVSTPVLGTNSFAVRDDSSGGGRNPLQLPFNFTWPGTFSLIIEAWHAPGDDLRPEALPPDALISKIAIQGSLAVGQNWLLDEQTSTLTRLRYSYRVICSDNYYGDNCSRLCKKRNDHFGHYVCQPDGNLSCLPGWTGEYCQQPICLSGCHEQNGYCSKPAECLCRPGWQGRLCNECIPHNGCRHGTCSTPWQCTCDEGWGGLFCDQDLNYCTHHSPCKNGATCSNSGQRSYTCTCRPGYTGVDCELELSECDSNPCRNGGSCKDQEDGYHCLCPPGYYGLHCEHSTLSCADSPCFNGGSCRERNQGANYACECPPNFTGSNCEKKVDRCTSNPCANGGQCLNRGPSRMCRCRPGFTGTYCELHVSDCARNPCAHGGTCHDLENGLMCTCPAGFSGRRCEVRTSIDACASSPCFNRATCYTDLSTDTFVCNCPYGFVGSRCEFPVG
# assay-notes: ProteOn off-rate screen, periplasmic extract, coated human DLL4
Answer shape: numeric part, then the unit.

>>> value_measured("DLLBII130B03 (VHH, not shown: small tags and cut ends) VHH: EVQLVESGGGLVQAGGSLRLSCAASGRTFSSYAMAWYRQAPGKEREYVAAIRWSGGTAYYADSVQGRFTISRDNAKNTVYLQMNSLKPEDTAVYYCANRAPDTRLAPYLYDYWGQGTQVTVSS")
"27 fold"

Your task in this section: give fold (off-rate vs DLLBII101G08) for each listed record.
1. DLLBII129H05 (VHH) VHH: EVQLVESGGGLVQAGGSLRLSCAASGRTFSSYAMAWYRLAPGKEREYVAAIRWSGGTAYYADSVQGRFTISRDNAKNTVYLQMNSLKPEDTAVYYCANRAPDTRLGPYLYDYWGQGTQVTVSS
2. DLLBII129G09 (VHH) VHH: EVQLVESGGGLVQAGGSLRLSCAASGRTFSSYAMAWYRQAPGKEREYVAAIRWSGETAYYADSVQGRFTISRDNAKNTVYLQMNSLKPEDTAVYYCANRAPDTRLEPYLYDHWGQGTQVTVSS
3. DLLBII129B05 (VHH, not shown: small tags and cut ends) VHH: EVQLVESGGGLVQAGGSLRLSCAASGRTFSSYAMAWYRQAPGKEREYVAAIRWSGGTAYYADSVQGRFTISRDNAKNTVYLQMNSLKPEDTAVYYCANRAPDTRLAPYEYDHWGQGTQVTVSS
4. DLLBII101G08 (VHH, not shown: small tags and cut ends, parent VHH; also called 101G08 (wt); 101G8) VHH: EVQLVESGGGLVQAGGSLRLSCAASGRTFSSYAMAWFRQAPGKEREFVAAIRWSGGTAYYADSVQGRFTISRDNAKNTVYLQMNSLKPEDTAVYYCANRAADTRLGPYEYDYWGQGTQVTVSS
5. DLLBII130E03 (VHH) VHH: EVQLVESGGGLVQAGGSLRLSCAASGRTFSSYAMAWYRQAPGKEREYVAAIRWSGGTAYYADSVQGRFTISRDNAKNTVYLQMNSLKPEDTAVYYCANRAPDTRLEPYEYDHWGQGTQVTVSS

## Output
["24 fold", "26 fold", "24 fold", "1 fold", "24 fold"]
